Kindly state Sampling time/Dissociation percent (%) 2 min for each of the entries shown.
assay: In vitro dissociation in blood plasma of rabbit; format: in vitro ADME, New Zealand white rabbits; conditions: fresh New Zealand white rabbit plasma, 37° C., 2 min
One number for each entry, in %.

[
  {
    "Compound": "CC(=O)O[C@@]12CO[C@@H]1C[C@H](O)[C@@]1(C)C(=O)[C@H](O)C3=C(C)[C@@H](OC(=O)[C@H](OC(=O)[C@H](F)CC(C)N(C)C)[C@@H](NC(=O)OC(C)(C)C)c4ccccc4)C[C@@](O)([C@@H](OC(=O)c4ccccc4)[C@H]21)C3(C)C.Cl (stereo partly shown)",
    "Value measured": 46.2
  }
]

Here are 3 compounds. What values of Sampling time/Dissociation percent (%) 2 min were reported for them?
1. CC(=O)O[C@@]12CO[C@@H]1C[C@H](O)[C@@]1(C)C(=O)[C@H](O)C3=C(C)[C@@H](OC(=O)[C@H](OC(=O)C(F)CCN(C)C)[C@@H](NC(=O)OC(C)(C)C)c4ccccc4)C[C@@](O)([C@@H](OC(=O)c4ccccc4)[C@H]21)C3(C)C.CS(=O)(=O)O (stereo partly shown)
2. COC1C(=O)C2(C)C(OC)CC3OCC3(OC(C)=O)C2C(OC(=O)c2ccccc2)C2(O)CC(OC(=O)C(OC(=O)C(F)CCN(C)C)C(NC(=O)OC(C)(C)C)c3ccccc3)C(C)=C1C2(C)C.Cl (stereo not shown)
3. CCN(CC)CC[C@](C)(C(=O)O[C@@H](C(=O)O[C@H]1C[C@@]2(O)[C@@H](OC(=O)c3ccccc3)[C@@H]3[C@]4(OC(C)=O)CO[C@@H]4C[C@H](OC)[C@@]3(C)C(=O)[C@H](OC)C(=C1C)C2(C)C)[C@@H](NC(=O)OC(C)(C)C)c1ccccc1)C(F)(F)F.Cl

1: 76.8; 2: 83.2; 3: 61.2

====

test system: human prostate cancer PC-3; assay: Inhibitory activity of cabazitaxel derivatives on subcutaneously xenografted tumor PC-3 in nude mice; conditions: D6; 13 mg/kg, D0 IV; nude mice
Measured quantity: Weight change (%) D6
Your answer should be a number followed by the unit of measure.

These solved cases illustrate the format of a correct answer.
[
  {
    "Compound": "CCN(C)CC[C@@H](F)C(=O)O[C@@H](C(=O)O[C@H]1C[C@@]2(O)[C@@H](OC(=O)c3ccccc3)[C@@H]3[C@]4(OC(C)=O)CO[C@@H]4C[C@H](OC)[C@@]3(C)C(=O)[C@H](OC)C(=C1C)C2(C)C)[C@@H](NC(=O)OC(C)(C)C)c1ccccc1.O=C(O)/C=C\\C(=O)O [Compound C32]",
    "Weight change (%) D6": "−14.7%"
  },
  {
    "Compound": "CO[C@H]1C(=O)[C@]2(C)[C@@H](OC)C[C@H]3OC[C@@]3(OC(C)=O)[C@H]2[C@H](OC(=O)c2ccccc2)[C@]2(O)C[C@H](OC(=O)[C@H](OC(=O)[C@H](F)CCN(C)C)[C@@H](NC(=O)OC(C)(C)C)c3ccccc3)C(C)=C1C2(C)C.CS(=O)(=O)O [Compound C7]",
    "Weight change (%) D6": "−14.2%"
  },
  {
    "Compound": "CO[C@H]1C(=O)[C@]2(C)[C@@H](OC)C[C@H]3OC[C@@]3(OC(C)=O)[C@H]2[C@H](OC(=O)c2ccccc2)[C@]2(O)C[C@H](OC(=O)[C@H](OC(=O)[C@@H](CCN(C)C)C(F)(F)F)[C@@H](NC(=O)OC(C)(C)C)c3ccccc3)C(C)=C1C2(C)C.CS(=O)(=O)O [Compound C35]",
    "Weight change (%) D6": "−15.8%"
  },
  {
    "Compound": "CO[C@H]1C(=O)[C@]2(C)[C@@H](OC)C[C@H]3OC[C@@]3(OC(C)=O)[C@H]2[C@H](OC(=O)c2ccccc2)[C@]2(O)C[C@H](OC(=O)[C@H](OC(=O)[C@@H](F)CCN(C)C)[C@@H](NC(=O)OC(C)(C)C)c3ccccc3)C(C)=C1C2(C)C.CS(=O)(=O)O [Compound C8]",
    "Weight change (%) D6": "−14.4%"
  },
  {
    "Compound": "CCN(CC)CC[C@@H](F)C(=O)O[C@@H](C(=O)O[C@H]1C[C@@]2(O)[C@@H](OC(=O)c3ccccc3)[C@@H]3[C@]4(OC(C)=O)CO[C@@H]4C[C@H](OC)[C@@]3(C)C(=O)[C@H](OC)C(=C1C)C2(C)C)[C@@H](NC(=O)OC(C)(C)C)c1ccccc1.CS(=O)(=O)O [Compound C33]",
    "Weight change (%) D6": "−15.1%"
  }
]

Next, consider the following compound.
Weight change (%) D6 reported for this compound CO[C@H]1C(=O)[C@]2(C)[C@@H](OC)C[C@H]3OC[C@@]3(OC(C)=O)[C@H]2[C@H](OC(=O)c2ccccc2)[C@]2(O)C[C@H](OC(=O)[C@H](OC(=O)C(F)CCN(C)C)[C@@H](NC(=O)OC(C)(C)C)c3ccccc3)C(C)=C1C2(C)C.CS(=O)(=O)O (stereo partly drawn) [Compound C9] : −14.4%

====

Kindly state Sampling time/Dissociation percent (%) 10 min for each of the entries shown.
test: In vitro dissociation in blood plasma of rabbit; assay type: in vitro ADME, New Zealand white rabbits; settings: fresh New Zealand white rabbit plasma, 37° C., 10 min
Where a name gives a salt, the structure may show the parent alone.
Answers are plain numbers, in %.

These solved cases illustrate the format of a correct answer.
[
  {
    "Molecule": "CC(=O)O[C@@]12CO[C@@H]1C[C@H](O)[C@@]1(C)C(=O)[C@H](O)C3=C(C)[C@@H](OC(=O)[C@H](OC(=O)[C@@H](F)CCN(C)C)[C@@H](NC(=O)OC(C)(C)C)c4ccccc4)C[C@@](O)([C@@H](OC(=O)c4ccccc4)[C@H]21)C3(C)C.CS(=O)(=O)O",
    "Unit symbol": "%",
    "Value measured": 100
  },
  {
    "Molecule": "CO[C@H]1C(=O)[C@]2(C)[C@@H](OC)C[C@H]3OC[C@@]3(OC(C)=O)[C@H]2[C@H](OC(=O)c2ccccc2)[C@]2(O)C[C@H](OC(=O)[C@H](OC(=O)[C@H](F)CCN(C)C)[C@@H](NC(=O)OC(C)(C)C)c3ccccc3)C(C)=C1C2(C)C [Compound 07, hydrochloride]",
    "Unit symbol": "%",
    "Value measured": 100
  },
  {
    "Molecule": "CO[C@H]1C(=O)[C@]2(C)[C@@H](OC)C[C@H]3OC[C@@]3(OC(C)=O)[C@H]2[C@H](OC(=O)c2ccccc2)[C@]2(O)C[C@H](OC(=O)[C@H](OC(=O)[C@@H](F)CCN(C)C)[C@@H](NC(=O)OC(C)(C)C)c3ccccc3)C(C)=C1C2(C)C.CS(=O)(=O)O",
    "Unit symbol": "%",
    "Value measured": 100
  },
  {
    "Molecule": "CCN(C)C(C)C[C@H](CC(F)F)C(=O)O[C@@H](C(=O)O[C@H]1C[C@@]2(O)[C@@H](OC(=O)c3ccccc3)[C@@H]3[C@]4(OC(C)=O)CO[C@@H]4C[C@H](O)[C@@]3(C)C(=O)[C@H](O)C(=C1C)C2(C)C)[C@@H](NC(=O)OC(C)(C)C)c1ccccc1.Cl (some centres unmarked)",
    "Unit symbol": "%",
    "Value measured": 73.2
  },
  {
    "Molecule": "CC(=O)O[C@H]1C(=O)[C@]23C[C@H]2C[C@H]2OC[C@@]2(OC(C)=O)[C@H]3[C@H](OC(=O)c2ccccc2)[C@]2(O)C[C@H](OC(=O)[C@H](OC(=O)[C@H](F)CC(C)N(C)C)[C@@H](NC(=O)OC(C)(C)C)c3ccccc3)C(C)=C1C2(C)C.Cl (some centres unmarked)",
    "Unit symbol": "%",
    "Value measured": 100
  }
]

Here are 4 molecules. What values of Sampling time/Dissociation percent (%) 10 min were reported for them?
1. CO[C@H]1C(=O)[C@]2(C)[C@@H](OC)C[C@H]3OC[C@@]3(OC(C)=O)[C@H]2[C@H](OC(=O)c2ccccc2)[C@]2(O)C[C@H](OC(=O)[C@H](OC(=O)[C@@H](CCN)C(F)F)[C@@H](NC(=O)OC(C)(C)C)c3ccccc3)C(C)=C1C2(C)C.O=S(=O)(O)O
2. CC(=O)OC1C(=O)C23CC2CC2OCC2(OC(C)=O)C3C(OC(=O)c2ccccc2)C2(O)CC(OC(=O)C(OC(=O)C(F)CC(C)N(C)C)C(NC(=O)OC(C)(C)C)c3ccccc3)C(C)=C1C2(C)C.CS(=O)(=O)O (centres unmarked)
3. CC(=O)O[C@H]1C(=O)[C@@]2(C)[C@H]([C@H](OC(=O)c3ccccc3)[C@]3(O)C[C@H](OC(=O)[C@H](OC(=O)[C@@H](F)CCN(C)C)[C@@H](NC(=O)c4ccccc4)c4ccccc4)C(C)=C1C3(C)C)[C@]1(OC(C)=O)CO[C@@H]1C[C@@H]2O.Cl
4. CO[C@H]1C(=O)[C@]2(C)[C@@H](OC)C[C@H]3OC[C@@]3(OC(C)=O)[C@H]2[C@H](OC(=O)c2ccccc2)[C@]2(O)C[C@H](OC(=O)[C@H](OC(=O)C(F)CCN(C)C)[C@@H](NC(=O)OC(C)(C)C)c3ccccc3)C(C)=C1C2(C)C.CS(=O)(=O)O (some centres unmarked)

[91.3, 100, 100, 100]

Here are 5 molecules. What values of Sampling time/Dissociation percent (%) 10 min were reported for them?
1. CC(=O)O[C@@]12CO[C@@H]1C[C@H](O)[C@@]1(C)C(=O)[C@H](O)C3=C(C)[C@@H](OC(=O)[C@H](OC(=O)C(F)CCN(C)C)[C@@H](NC(=O)OC(C)(C)C)c4ccccc4)C[C@@](O)([C@@H](OC(=O)c4ccccc4)[C@H]21)C3(C)C.Cl (some centres unmarked)
2. COC1C(=O)C2(C)C(OC)CC3OCC3(OC(C)=O)C2C(OC(=O)c2ccccc2)C2(O)CC(OC(=O)C(OC(=O)C(F)CCN(C)C)C(NC(=O)OC(C)(C)C)c3ccccc3)C(C)=C1C2(C)C.Cl (centres unmarked)
3. CC(=O)O[C@@]12CO[C@@H]1C[C@H](O)[C@@]1(C)C(=O)[C@H](O)C3=C(C)[C@@H](OC(=O)[C@H](OC(=O)[C@H](F)CCN(C)C)[C@@H](NC(=O)OC(C)(C)C)c4ccccc4)C[C@@](O)([C@@H](OC(=O)c4ccccc4)[C@H]21)C3(C)C.CS(=O)(=O)O
4. CC(=O)O[C@H]1C(=O)[C@@]2(C)[C@H]([C@H](OC(=O)c3ccccc3)[C@]3(O)C[C@H](OC(=O)[C@H](OC(=O)[C@@H](F)CCN(C)C)[C@@H](NC(=O)c4ccccc4)c4ccccc4)C(C)=C1C3(C)C)[C@]1(OC(C)=O)CO[C@@H]1C[C@@H]2O.CS(=O)(=O)O
5. CCN(CC)CC[C@](C)(C(=O)O[C@@H](C(=O)O[C@H]1C[C@@]2(O)[C@@H](OC(=O)c3ccccc3)[C@@H]3[C@]4(OC(C)=O)CO[C@@H]4C[C@H](OC)[C@@]3(C)C(=O)[C@H](OC)C(=C1C)C2(C)C)[C@@H](NC(=O)OC(C)(C)C)c1ccccc1)C(F)(F)F.Cl

[100, 100, 100, 100, 96.3]

The origin of these recorded values is patent US9650390B2.
